# test summary: compound fluorescence in toxin protease inhibitor counterscreen, primary screen, artefact control for toxin protease inhibitor project, biochemical, multiplex microsphere, HTS (AID 624483)
# reported conditions: compound autofluorescence counterscreen, microsphere flow cytometry
Among all 360,000 compounds or so, about 11,000 (3.1%) were called active. Another 2% or so got no clear call; they are omitted. Cut-off read from the data, not from the text of the source: active = fluorescence intensity above about 16000; inconclusive = no clear call, values can overlap the other calls; inactive = below that. The list comes from a sample in which actives are over-represented; it also holds close analogues and randomly drawn compounds.
Answer with one of the outcomes given here: yes for active, no for inactive

Reference set (4 entries):
NC(=O)Cn1c(=O)oc2ccccc21 : yes
COc1ccc(/C=C/C(=O)Nc2c(C)nn(C)c2C)cc1COc1ccc(Br)cc1 : no
Cc1cc(N2CCN(S(=O)(=O)c3ccc(C)c(C)c3)CC2)c2ccccc2n1 : yes
COc1cc(C2C(C#N)=C(N)Oc3n[nH]c(-c4ccccn4)c32)cc(OC)c1OC (stereo not given) : yes

Now for another entry.
Query: Lab log entry: `COc1ccc(Cn2c(=S)[nH]c3cc(C(=O)NCCCN4CCOCC4)ccc3c2=O)cc1` — outcome as called in the assay?
Reply: no
